# Tested on: HCT-116 colon
# assay-summary: NCI-60 one-dose screen, 48 h (100 = growth as untreated, 0 = no growth, -100 = all killed)
# condition-parameters: 10 µM unless noted
The panel holds about 83,000 compounds, 20% with a hit somewhere; the sample as a whole holds those more often. Calls of active or inactive are those of the source. How the source made its calls: active means growth percent below 10; inactive means the rest.
I'd appreciate it if you could supply growth values for the items below.

Item under review: CC[C@H](Nc1ncnc2nc[nH]c12)c1nc2cccc(NCc3ccc(C(=O)NO)o3)c2c(=O)n1-c1ccccc1 . Reported growth?
96.9% (inactive)

Item under review: N#CC1=C(N2CCOCC2)NC2c3ccccc3Sc3ccccc3N2C1=N (configuration not stated) . Reported growth?
97.2% (inactive)

Item under review: CC(O)c1cc[cH-]c1.[Fe+2].c1cc[cH-]c1 (configuration not stated) . Reported growth?
94.1% (inactive)

Item under review: C/C=C/C/C=C/[C@H](C)C[C@H](O)[C@@H]1C[C@@H]2O[C@H]2/C=C/[C@H](O)[C@@H](O)/C=C/C[C@H](C)CC(=O)O1 . Reported growth?
70.6% (inactive)

Item under review: CC(O)C(N)=O (configuration not stated) . Reported growth?
94.2% (inactive)

Item under review: CC(=O)OC1CC2C3CCC4C[C@@H](NC(=O)C=C(C)C)CC[C@]4(C)C3CC[C@]2(C)[C@H]1C(C)N(C)C (some centres not stated) . Reported growth?
-70.4% (active)

Item under review: CNCCCNCCCCNCCCN1C(=O)c2ccc3c4c(ccc(c24)C1=O)C(=O)N(CCCNCc1ccccc1OC)C3=O . Reported growth?
11.1% (inactive)

Item under review: CCOC(=O)C1CCCN1C(=O)C1(NC(C)=O)CCCC1 (configuration not stated) . Reported growth?
96.4% (inactive)

Item under review: N#CCCCCCCCCCCC#N . Reported growth?
105% (inactive)

Item under review: CCOC(=O)c1c(C)oc2ncnc(Nc3ccc(C(=O)NCCc4ccccc4)cc3)c12 . Reported growth?
64.8% (inactive)

Item under review: O=C(/C=C\c1ccc(NCc2ccc(C(=O)O)cc2)cc1)CCl . Reported growth?
-15.3% (active)

Item under review: CCCCCCCCc1ccc(CCC(N)(CO)CO)cc1 . Reported growth?
-69.8% (active)

Item under review: CCCCCCCCc1ccc(OCCOCC[N+](C)(C)CC)cc1 (tested in a mixture with another compound) . Reported growth?
54.2% (inactive)

Item under review: BrCCCOc1ccc(Oc2ccc(OCCCBr)cc2)cc1 . Reported growth?
102% (inactive)

Item under review: COc1ccc(C2=C/C(=C\c3ccc(Cl)cc3)C(=O)NN2C(=S)NN)cc1 . Reported growth?
94.9% (inactive)

Item under review: CC(=O)Nc1nc(C)c(C(=O)N/N=C/N2CCCCC2)s1 . Reported growth?
55.8% (inactive)

Item under review: COc1ccc(-c2nc(N)n(C(=S)Nc3ccccc3)n2)cc1 . Reported growth?
98.3% (inactive)

---

# System: MOLT-4 leukemia
# assay-summary: NCI-60 one-dose screen, 48 h (100 = growth as untreated, 0 = no growth, -100 = all killed)
# condition-parameters: 10 µM unless noted
Compounds without any hit were thinned out: in the full panel of roughly 83,000, 20% have a hit.
Response key: satisfied means growth >= 30%; not satisfied means growth < 30%.

Given the entry COc1ccccc1Cn1cc2c(c1)-c1oncc1CC2 , answer whether its growth meets or surpasses 30%.
not satisfied

Given the entry CC(=O)Nc1ccc(S(=O)(=O)Cl)cc1 , answer whether its growth meets or surpasses 30%.
satisfied

Given the entry CCCCS(=O)(=O)c1cc(Nc2ccc(O)c3c2C(=O)c2ccccc2C3=O)ccc1C , answer whether its growth meets or surpasses 30%.
satisfied

Given the entry Cc1nnc(/N=C2\NC(=O)/C(=C/C=C/c3ccccc3)S2)s1 , answer whether its growth meets or surpasses 30%.
satisfied

Given the entry CCOC(=O)NC1=NCC(C)(C)S1 , answer whether its growth meets or surpasses 30%.
satisfied

Given the entry Cc1c([C@H](C(Cl)Cl)[C@H](O)[C@H]2C[C@H](C)C(=O)O2)ccc2c1C(=O)[C@H]1[C@H]2C[C@@H](Br)[C@@]23O[C@@H](CO[C@H]2O)CC13C (stereo partly specified) , answer whether its growth meets or surpasses 30%.
not satisfied

Given the entry c1ccc(Nc2ccccn2)cc1 , answer whether its growth meets or surpasses 30%.
satisfied

Given the entry CCCC(C)c1cc(Cc2cc(Cl)cc(Cl)c2O)c(O)c(Cc2cc(Cl)cc(Cl)c2O)c1 (stereo unspecified) , answer whether its growth meets or surpasses 30%.
not satisfied

Given the entry CC/C(=N\Nc1nc2ccccc2n1C)c1ccccn1 , answer whether its growth meets or surpasses 30%.
not satisfied

Given the entry O=C(CCCC(=O)Nc1ccc(Cn2nnc3cc(Cl)c(Cl)cc32)cc1)Nc1ccc(CN2N=NC3C=C(Cl)C(Cl)=CC32)cc1 (stereo unspecified) , answer whether its growth meets or surpasses 30%.
satisfied

Given the entry C[C@]12C=CC(=O)C=C1[C@@H](F)C[C@@H]1[C@@H]2[C@@H](O)C[C@@]2(C)[C@H]1CC[C@]2(O)C(=O)CO , answer whether its growth meets or surpasses 30%.
satisfied

Given the entry CCCCCCCCc1ccc(CCC(N)(CO)CO)cc1 , answer whether its growth meets or surpasses 30%.
not satisfied

Given the entry O=C(Cc1ccccc1[N+](=O)[O-])c1ccc2c(c1)OCO2 , answer whether its growth meets or surpasses 30%.
satisfied

Given the entry C#CCCCCCCC[C@@H]1OC(=O)[C@H]([C@@H](C)CC)NC(=O)[C@H]([C@@H](C)CC)NC(=O)CC(=O)[C@@H]1C , answer whether its growth meets or surpasses 30%.
satisfied

Given the entry Cc1ccc(S(=O)(=O)N/N=C2\CC3CCC2C3)cc1 (stereo unspecified) , answer whether its growth meets or surpasses 30%.
satisfied

Given the entry CCOC(=O)C1CCCN1C(=O)C1(NC(C)=O)CCCC1 (stereo unspecified) , answer whether its growth meets or surpasses 30%.
satisfied

Given the entry Cc1ccc2c(O)c(O)cc(NC(C)CCCN)c2n1 (stereo unspecified) , answer whether its growth meets or surpasses 30%.
not satisfied

Given the entry Brc1ccc(-c2nc3ccccc3s2)cc1 , answer whether its growth meets or surpasses 30%.
satisfied

Given the entry CCCCCCC(C)N(CC(C)(C)O)C(=O)c1ccc([N+](=O)[O-])cc1 (stereo unspecified) , answer whether its growth meets or surpasses 30%.
satisfied

Given the entry CN(C)CCOC(=O)C(C)(C)C , answer whether its growth meets or surpasses 30%.
satisfied

Given the entry O=C(O)c1occ(Cl)c1Cl , answer whether its growth meets or surpasses 30%.
satisfied

Given the entry COc1cc2c(c(OC)c1OC)C(=O)CC(c1cccc(C(=O)Nc3cccc(Br)c3)c1)O2 (stereo unspecified) , answer whether its growth meets or surpasses 30%.
satisfied

Given the entry O=C1Nc2c(c(=O)n(-c3ccccc3)c3ccccc23)C(c2ccc(Cl)cc2)N1 (stereo unspecified) , answer whether its growth meets or surpasses 30%.
satisfied

Given the entry CCCNC(=O)Oc1ccc(/C(=C(/C)Cc2ccc(OC)cc2)c2ccc(OCCN3CCCCC3)cc2)cc1 , answer whether its growth meets or surpasses 30%.
satisfied

Given the entry COc1ccc2sc(-n3nc4nc5n(c(=O)c4c3N)-c3ccccc3Sc3ccccc3-5)nc2c1 , answer whether its growth meets or surpasses 30%.
satisfied

Given the entry COc1cc(CCNc2cnc3cc(N)cc(N)c3n2)cc(OC)c1 , answer whether its growth meets or surpasses 30%.
not satisfied

Given the entry CC(=O)Oc1cc2ccccc2cc1C(C)C , answer whether its growth meets or surpasses 30%.
satisfied

Given the entry CNCCCNCCCCNCCCN1C(=O)c2ccc3c4c(ccc(c24)C1=O)C(=O)N(CCCNCc1ccccc1OC)C3=O , answer whether its growth meets or surpasses 30%.
not satisfied

Given the entry CCCCCCCCC1OC1CCCCCCCC(=O)O (stereo unspecified) , answer whether its growth meets or surpasses 30%.
satisfied
